reported-property: melting point

CCOC(=O)N1CCc2nnc(NN=C(C)C)cc2C1    171 to 174 °C
O=C1c2cc(Cl)ccc2CN2C(=NO)CCC12 (configuration not stated)    130 to 136 °C
CC(C)(C)OC(=O)NN(Cc1ccc(-c2cnccn2)cc1)C[C@H](O)[C@@H](N)Cc1ccccc1    146 to 148 °C
NNc1ccnc2c(NC(=O)c3c(Cl)cccc3Cl)cc(Cl)cc12    142 to 150 °C

Q) Param item = `CCCCC(=O)Oc1ccc(-c2ccc(C#N)cc2)cc1` ; retrieve measured melting point.
A) 36.5 to 36.9 °C

Q) Requested field: melting point. Item: `COc1ccc(C(=O)Nc2ccc3ccc(OCCN(C)C)nc3n2)cc1`
A) 77 to 80 °C

Q) Reported melting point, molecule `Cc1[nH]c(C(N)=O)c(C)c1-c1ccnc(Nc2ccc(F)cc2)n1` : ____
A) 93.5 to 96.8 °C

Q) Find the recorded melting point belonging to `Cc1cc(N2CCN(c3ccccc3)CC2)c(C#N)c(=O)[nH]1` and report it.
A) > 270 °C

Q) Record request: melting point value, item `Cc1[nH]c2cc(C(=O)c3ccccc3)ccc2c1/C=C/C(=O)c1ccncc1`
A) 267 to 270 °C

Q) Look up melting point: `COc1ccc(OCCCC2CCN(c3ccc(Cl)nn3)CC2)c(Cl)c1`
A) 101 °C

Q) Please report the recorded melting point for OCC(O)Cc1cccc(Cc2ccccc2)c1OCc1ccccc1 (configuration not stated) .
A) 55 to 58 °C

Q) Fill in the blank: the reported melting point of `CCN(CC)c1nc(C)nc2scnc12` is ____.
A) 41.6 to 43 °C

* * *

reported-property: melting point

CCCc1nc2ccccc2c(C(=O)O)c1Oc1ccc(-c2ccccc2C(N)=O)cc1    230 °C
CCN(CC)CC(=O)N1c2ccccc2N(C)S(=O)(=O)c2ccccc21    161 to 162 °C
O=C1c2ccccc2C(=O)N1CC(=O)N1c2ccccc2N(Cc2ccccc2)C[C@@H]2CCC[C@H]21 (relative stereo)    232 to 234 °C
COc1c(-c2ccccc2)c(C(=O)c2ccc(O)c(Br)c2)n2ccccc12    205 °C
CCCCCCCCCc1cc(-c2ccccc2)c(OCC(=O)O)c(-c2ccccc2)c1    63 to 65 °C
CN(C)CC(=Cc1ccc(/C=C/C(=O)O)cc1)O[Si](C)(C)C(C)(C)C    207 °C
CCOC(=O)C(C#N)=Cc1ccc(OC)c2c1CC(C)(C)O2    112 to 117 °C
CCCn1cc(C(=O)NCc2ccc(Cl)cc2)c(=O)c2cc(CO)sc21    174 to 175 °C

Here is another molecule to look at.
Q) So what does the record say about melting point for `CCOC(=O)c1cnn2c1c(OCC)nc1ccccc12` ?
A) 88 to 90 °C

* * *

Each entry below lists one item and its recorded melting point value.

Clc1cccc(Nc2ncnc3[nH]nc(NCc4cccc5c4OCO5)c23)c1    214 to 215 °C
COC(=O)c1ccc(N2C(=O)CCC2(CBr)COC(=O)c2ccccc2)c([N+](=O)[O-])c1 (stereo not given)    183 to 184 °C
Oc1cccc2c1cc(C1=NCCN1)n2-c1ccccc1    > 270 °C
Cc1[nH]cnc1CN1CCc2c(c3cccc(OCc4ccccc4)c3n2COCc2ccccc2)C1=O    170 to 172 °C
CCOC(=O)CCCCn1c(C(=O)OCC)cc2c(Cl)cc(O)cc21    74 to 76 °C

Kindly review the next compound as well.
Q) What value of measured melting point is listed for `CC(C)(N)c1ccc(-c2nc(Nc3ccc(F)cc3)ncc2C#N)cc1` ?
A) 228 to 229 °C
